Reported AC50 is given for each of the following compounds.
# ASSAYED SYSTEM: Cytochrome P450 3A4 (Homo sapiens)
# Sequence (P08684 whole entry): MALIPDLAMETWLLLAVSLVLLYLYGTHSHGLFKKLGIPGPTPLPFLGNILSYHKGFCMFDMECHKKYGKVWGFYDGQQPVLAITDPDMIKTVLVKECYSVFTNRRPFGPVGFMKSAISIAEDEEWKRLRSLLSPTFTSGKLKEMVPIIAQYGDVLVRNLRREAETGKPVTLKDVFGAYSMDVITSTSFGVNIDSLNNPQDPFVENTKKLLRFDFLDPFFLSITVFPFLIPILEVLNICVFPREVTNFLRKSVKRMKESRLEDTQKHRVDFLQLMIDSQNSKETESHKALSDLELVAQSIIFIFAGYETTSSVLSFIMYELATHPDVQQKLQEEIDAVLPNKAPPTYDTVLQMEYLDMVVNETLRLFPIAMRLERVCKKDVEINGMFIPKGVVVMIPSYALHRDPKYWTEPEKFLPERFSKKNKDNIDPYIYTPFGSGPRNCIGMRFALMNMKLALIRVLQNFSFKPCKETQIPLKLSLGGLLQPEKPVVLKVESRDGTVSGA

COMPOUND: C[C@H]1COC(=O)[C@H](Cc2ccccc2)NC(=O)[C@@H](C)COC(=O)[C@H](Cc2ccccc2)NC1=O
ASSAYED SYSTEM: Cytochrome P450 3A4 (Homo sapiens)
AC50: 3.98 µM (inconclusive)
//
COMPOUND: Cc1nc2ncnn2c(C)c1CCC(=O)NCc1ccccc1
ASSAYED SYSTEM: Cytochrome P450 3A4 (Homo sapiens)
AC50: 17.8 µM (inconclusive)
//
COMPOUND: Clc1cccc(Nc2nnc(-c3ccccc3)c3ccccc23)c1
ASSAYED SYSTEM: Cytochrome P450 3A4 (Homo sapiens)
AC50: 7.94 µM (inconclusive)
//
COMPOUND: Oc1ccc([C@@H]2CNCc3sccc32)cc1O
ASSAYED SYSTEM: Cytochrome P450 3A4 (Homo sapiens)
AC50: 15.8 µM (inconclusive)
//
COMPOUND: COc1ccc(Nc2nnc(-c3ccc(N4CCOCC4)c([N+](=O)[O-])c3)c3ccccc23)cc1
ASSAYED SYSTEM: Cytochrome P450 3A4 (Homo sapiens)
AC50: 7.94 µM (inconclusive)
//
COMPOUND: CN1CC[C@@]2(CCCN(C(=O)c3ccncc3)C2)C1
ASSAYED SYSTEM: Cytochrome P450 3A4 (Homo sapiens)
AC50: 31.6 µM (inconclusive)
//
COMPOUND: O=C(c1cc(C(F)(F)F)cc(C(F)(F)F)c1)N1CCC2(CC1)CN(Cc1ccncc1)C2
ASSAYED SYSTEM: Cytochrome P450 3A4 (Homo sapiens)
AC50: 15.8 µM (inconclusive)
//
COMPOUND: Cn1cc(-c2nc3cnc(N4CCNCC4)nc3n(-c3ccccc3)c2=O)c2ccccc21
ASSAYED SYSTEM: Cytochrome P450 3A4 (Homo sapiens)
AC50: 20 µM (inconclusive)
//
COMPOUND: O=c1c(Cl)c(N2CCN(S(=O)(=O)c3ccc(F)cc3)CC2)cnn1-c1cccc(Cl)c1
ASSAYED SYSTEM: Cytochrome P450 3A4 (Homo sapiens)
AC50: 20 µM (inconclusive)
//
COMPOUND: Oc1cccc2c(O)nccc12
ASSAYED SYSTEM: Cytochrome P450 3A4 (Homo sapiens)
AC50: 25.1 µM (inconclusive)
//
COMPOUND: O=c1c(-c2ccc(F)c(F)c2)nc2cncnc2n1C1CC1
ASSAYED SYSTEM: Cytochrome P450 3A4 (Homo sapiens)
AC50: 12.6 µM (inconclusive)
//
COMPOUND: CN1CCN(c2ncncc2-c2ccccc2C(F)(F)F)CC1
ASSAYED SYSTEM: Cytochrome P450 3A4 (Homo sapiens)
AC50: 3.98 µM (inconclusive)
//
COMPOUND: CCCCN1C(=O)NC(=O)/C(=C\NCCN2CCCCC2)C1=O
ASSAYED SYSTEM: Cytochrome P450 3A4 (Homo sapiens)
AC50: 20 µM (inconclusive)
//
COMPOUND: CCCn1c(CC)nc([N+](=O)[O-])c1S(=O)(=O)c1ccccc1
ASSAYED SYSTEM: Cytochrome P450 3A4 (Homo sapiens)
AC50: 25.1 µM (inconclusive)
//
COMPOUND: O=C(c1[nH]o[n+](=O)c1C(=O)c1csc2ccccc12)c1csc2ccccc12
ASSAYED SYSTEM: Cytochrome P450 3A4 (Homo sapiens)
AC50: 3.16 µM (inconclusive)
//
COMPOUND: O=C(O)c1cc2cc(Cc3cccnc3)ccc2o1
ASSAYED SYSTEM: Cytochrome P450 3A4 (Homo sapiens)
AC50: 25.1 µM (inconclusive)
//
COMPOUND: CCOC(=O)C(=Cc1ccc(-c2ccsc2C(=O)OC)o1)C(=O)OCC
ASSAYED SYSTEM: Cytochrome P450 3A4 (Homo sapiens)
AC50: 39.8 µM (inconclusive)
//
COMPOUND: COc1cccc(-c2cc(C(F)(F)F)nc(N3CCCCC3)n2)c1
ASSAYED SYSTEM: Cytochrome P450 3A4 (Homo sapiens)
AC50: 20 µM (inconclusive)
//
COMPOUND: Cc1ccccc1N(C(=O)Cc1cccs1)C(C(=O)NCC1CCCO1)c1cccnc1 (stereo not given)
ASSAYED SYSTEM: Cytochrome P450 3A4 (Homo sapiens)
AC50: 1 µM (inconclusive)
//
COMPOUND: CCCCCn1c(CN2CCN(c3cc(Cl)ccc3C)CC2)nc2c1c(=O)[nH]c(=O)n2C
ASSAYED SYSTEM: Cytochrome P450 3A4 (Homo sapiens);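 further: CYP3A4 tested as one member of a cytochrome P450 panel screen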
AC50: 2.24 µM (inconclusive)
